Origin of values: ChEMBL document CHEMBL4680340

Reported CC50 is given for each of the following compounds.
test.description: Cytotoxicity against human CEM cells assessed as reduction in cell viability by MTT assay
Assay type: cell-based
experimental.parameters: CEM (CCRF-CEM) cells
readout.kind: CC50 (µM)

In [3]: df
Out[3]:
                               sample_smiles  inequality_symbol  numeric_result
 0  CCN(CC)C(=O)C(=O)c1c(C)c(C(=O)Nc2ccc(F)c(F)c2)n(C)c1C                  =            16.8
 1  Cn1cc(C(=O)C(=O)Nc2nccs2)cc1C(=O)Nc1ccc(F)c(F)c1                  >             100
 2  C=CCNC(=O)C(=O)c1cc(C(=O)Nc2ccc(F)c(F)c2)n(C)c1                  >             100
 3  Cc1c(C(=O)C(=O)Nc2nc3ccccc3[nH]2)c(C)n(C)c1C(=O)Nc1ccc(F)c(F)c1                  =            35.8
 4  Cn1cc(C(=O)C(=O)NCC#N)cc1C(=O)Nc1ccc(F)c(F)c1                  >             100
 5  Cn1cc(C(=O)C(=O)N2CC(F)(F)C2)cc1C(=O)Nc1ccc(F)c(F)c1                  >             100
 6  Cc1c(C(=O)C(=O)NCc2nccn2C)c(C)n(C)c1C(=O)Nc1ccc(F)c(F)c1                  =            46.9
 7  C=C1[C@H](CO)[C@@H](O)C[C@@H]1n1cnc2c(=O)[nH]c(N)nc21                  >             100
 8  Cc1c(C(=O)C(=O)NCc2ccccn2)c(C)n(C)c1C(=O)Nc1ccc(F)c(F)c1                  =            38.4
 9  Cn1cc(C(=O)C(=O)NOC2CCCC2)cc1C(=O)Nc1ccc(F)c(F)c1                  =            37.9
10  C#CCNC(=O)C(=O)c1c(C)c(C(=O)Nc2ccc(F)c(F)c2)n(C)c1C                  >             100
